Each recorded value in this set is attributed to patent US20250270343A1.

system.tested: T1, soluble cynomolgus GPNMB (recombinant extracellular domain) (cynomolgus, UniProt Q14956 23-499 (human entry), limits assumed)
T1 chain: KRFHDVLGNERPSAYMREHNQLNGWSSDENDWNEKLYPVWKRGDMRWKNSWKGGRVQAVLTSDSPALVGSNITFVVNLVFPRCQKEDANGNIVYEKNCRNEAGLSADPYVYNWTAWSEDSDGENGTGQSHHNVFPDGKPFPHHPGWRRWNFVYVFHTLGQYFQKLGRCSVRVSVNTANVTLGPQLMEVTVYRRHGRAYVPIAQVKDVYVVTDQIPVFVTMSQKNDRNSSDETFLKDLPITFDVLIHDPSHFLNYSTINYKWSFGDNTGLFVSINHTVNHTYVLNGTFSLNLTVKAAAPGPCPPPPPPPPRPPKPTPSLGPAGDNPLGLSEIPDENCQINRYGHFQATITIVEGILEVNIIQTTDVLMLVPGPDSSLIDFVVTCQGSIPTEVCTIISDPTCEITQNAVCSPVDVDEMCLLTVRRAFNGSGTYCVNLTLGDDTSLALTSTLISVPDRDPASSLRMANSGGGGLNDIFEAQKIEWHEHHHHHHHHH
assay.name: SPR Carterra, Ab immobilized
measured.property: koff (s⁻¹)
Write the number in s⁻¹ without appending the unit.

Guide cases for koff, answers given:
binder: anti-GPNMB antibody GPN-01 (antibody, human IgG1, V domains shown, chimeric) VH: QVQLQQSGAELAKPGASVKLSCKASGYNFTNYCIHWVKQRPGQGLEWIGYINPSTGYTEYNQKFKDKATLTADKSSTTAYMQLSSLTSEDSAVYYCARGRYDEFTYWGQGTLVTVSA VL: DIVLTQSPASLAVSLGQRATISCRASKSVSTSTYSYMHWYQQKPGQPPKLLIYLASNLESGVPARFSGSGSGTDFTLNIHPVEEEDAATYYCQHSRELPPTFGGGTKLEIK
u: s⁻¹
measured: 0.0034

binder: anti-GPNMB antibody GPN-24 (antibody, human IgG1, V domains shown, chimeric) VH: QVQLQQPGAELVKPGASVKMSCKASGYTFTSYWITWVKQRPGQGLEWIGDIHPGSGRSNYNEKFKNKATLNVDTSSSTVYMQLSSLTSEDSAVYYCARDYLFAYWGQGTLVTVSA VL: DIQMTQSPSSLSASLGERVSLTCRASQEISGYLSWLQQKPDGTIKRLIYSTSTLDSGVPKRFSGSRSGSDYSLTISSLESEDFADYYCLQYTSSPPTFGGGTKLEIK
u: s⁻¹
measured: 0.00061

binder: anti-GPNMB antibody GPN-31 (antibody, human IgG1, V domains shown, chimeric) VH: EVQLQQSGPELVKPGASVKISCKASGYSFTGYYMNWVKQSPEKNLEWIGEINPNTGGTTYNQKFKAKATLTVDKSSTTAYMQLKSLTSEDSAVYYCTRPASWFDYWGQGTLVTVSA VL: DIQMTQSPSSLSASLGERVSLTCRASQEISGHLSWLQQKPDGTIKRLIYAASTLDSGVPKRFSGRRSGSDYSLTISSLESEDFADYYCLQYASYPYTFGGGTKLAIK
u: s⁻¹
measured: 0.00036

binder: anti-GPNMB antibody GPN-22 (antibody, human IgG1, V domains shown, chimeric) VH: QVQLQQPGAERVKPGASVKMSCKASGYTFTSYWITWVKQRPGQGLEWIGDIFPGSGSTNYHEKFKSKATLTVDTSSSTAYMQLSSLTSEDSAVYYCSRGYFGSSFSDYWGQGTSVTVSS VL: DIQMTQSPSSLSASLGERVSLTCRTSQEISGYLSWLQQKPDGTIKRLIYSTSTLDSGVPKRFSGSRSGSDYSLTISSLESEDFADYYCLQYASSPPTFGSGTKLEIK
u: s⁻¹
measured: 0.0033

Please find the next binder below.
# input Could you tell me which koff is on file for anti-GPNMB antibody GPN-06 (antibody, human IgG1, V domains shown, chimeric) VH: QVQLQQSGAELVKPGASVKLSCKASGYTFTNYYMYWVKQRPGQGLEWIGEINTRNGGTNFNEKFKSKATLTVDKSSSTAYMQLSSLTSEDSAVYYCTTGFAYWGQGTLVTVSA VL: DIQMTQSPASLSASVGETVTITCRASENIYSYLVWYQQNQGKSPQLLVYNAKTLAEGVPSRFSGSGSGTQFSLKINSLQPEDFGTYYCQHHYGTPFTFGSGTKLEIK ?
# output 0.0021
